# test: Anti-ulcer activity: ulcer caused by aspirin
# Format: in vivo, rat (male Wistar)
# condition-summary: 100 mg/kg I.P.; aspirin 192 mg/kg per os; standardised to control batch and cimetidine (index 1)
measured-metric: Ulcer index
Just the number, please.

Measured Ulcer index, Cc1ccc(C(=O)c2cccc(O[C@@H]3OC[C@@H](O)[C@H](O)[C@H]3O)c2)cc1 [Example 49] : 1.21

Measured Ulcer index, CC(=O)N[C@H]1[C@H](Oc2c(C)cc(C(=O)c3ccccc3C)cc2C)O[C@H](CO)[C@@H](O)[C@@H]1O [Example 26] : 0.60

Measured Ulcer index, CC(=O)O[C@@H]1[C@@H](OC(C)=O)[C@H](Oc2ccc(C(=O)c3c(C)cc(C)cc3C)cc2)OC[C@H]1OC(C)=O [Example 73] : 0.52

Measured Ulcer index, CC(=O)O[C@@H]1[C@@H](OC(C)=O)[C@H](Oc2ccc(C(=O)c3ccc(Br)cc3)cc2)OC[C@H]1OC(C)=O [Example 75] : 0.32
